- Tested on: ACHN
- protocol.summary: NCI tumour cell line growth inhibition, 48 h
The source made the active and inactive calls. Cut-off read from the data, not from the text of the source: active = GI50 up to about 1.1 µM and inactive = higher.
Classes used: T = active, F = inactive

INSERT INTO results (compound, tested_system, class) VALUES
  ('CC(C)CCC[C@@H](C)[C@H]1CC[C@H]2[C@@H]3CC=C4C[C@@H](OC(=O)c5cccc6c(=O)c7ccccc7[nH]c56)CC[C@]4(C)[C@H]3CC[C@]12C', 'ACHN', 'F'),
  ('COC(=O)[C@]1(C)CCC[C@]2(C)C3CC4OOC3(C=C4C(C)(C)O)CCC21 (stereo partly drawn)', 'ACHN', 'F'),
  ('O=C(O)CNc1ccc2c(c1)Cc1cc(Br)ccc1-2', 'ACHN', 'F'),
  ('COc1ccc(C2SCC(=O)N2NC2=NC(=O)CC(=O)N2)cc1 (stereo not drawn)', 'ACHN', 'F'),
  ('CN(C)CC1CC/C(=C\c2ccc3c(c2)OCO3)C1=O (stereo not drawn)', 'ACHN', 'F'),
  ('N#Cc1c(-c2ccc(Cl)cc2)c(C#N)c(=O)n(NS(=O)(=O)c2ccccc2)c1-c1ccccc1', 'ACHN', 'F'),
  ('Cc1cc(C)c2c(O)cc(-c3cccc(F)c3)nc2n1', 'ACHN', 'T'),
  ('CC1=CC23C(COC(=O)C24CO4)C(C(=O)O)=CC3C1C (stereo not drawn)', 'ACHN', 'F'),
  ('CC(C)N(C(=O)c1cccc(C(=O)N(C(C)C)C(C)C)c1)C(C)C', 'ACHN', 'F'),
  ('CC1(c2cccc3c2C2(O)C=CC4(CCC32)OCCO4)OCCO1 (stereo not drawn)', 'ACHN', 'F'),
  ('C[C@@]12C=CC3C/C(=N\C(N)=S)C=C(CCCC4OCCO4)[C@]3(CC1)C2 (stereo partly drawn)', 'ACHN', 'F'),
  ('N#Cc1cccc(/C=N/N/C(N)=N/O)c1', 'ACHN', 'F'),
  ('O=[N+]([O-])c1ccc(Cc2nc3cc4ccccc4cc3[nH]2)cc1C(F)(F)F', 'ACHN', 'F'),
  ('O=[N+]([O-])c1ccc(-c2ccc([C@H]3CC(c4cc(F)c(Cl)cc4Cl)=NN3)o2)cc1', 'ACHN', 'F'),
  ('COc1ccc(-c2cc(-c3ccc(Nc4ccnc5cc(Cl)ccc45)cc3)[nH]c(=O)c2C#N)c2ccccc12', 'ACHN', 'F'),
  ('COc1cccc(NC(=O)CC(=O)N2N=C(n3ccc4ccccc43)CC2c2ccccc2)c1 (stereo not drawn)', 'ACHN', 'F'),
  ('CCOC(=O)C1N(S(=O)(=O)c2ccc(C)cc2)CCC12C(c1ccc(OC)c(OC)c1)=Nc1ccccc12 (stereo not drawn)', 'ACHN', 'F'),
  ('COc1cccc(N2C(=O)c3c(c4[nH]c5ccccc5c4c4ccc(C(C)(C)C)cc34)C2=O)c1', 'ACHN', 'F'),
  ('O=C1CC(c2ccc(O)cc2)C2(O1)C(=O)OC(C(O)CO)C2O (stereo not drawn)', 'ACHN', 'F'),
  ('CC(C)NC(=O)OCc1c(COC(=O)NC(C)C)c(-c2ccc[n+](COC(=O)CC(C)(C)C)c2)n2c1CCC2', 'ACHN', 'F'),
  ('CC(=O)N1CC(=O)NC1=S', 'ACHN', 'F'),
  ('CC1=C(CO)C(=O)OC(C(C)C2CCC3C4CC5OC56C(O)C(N5CC5)=CC(=O)C6(C)C4CCC23C)C1 (stereo not drawn)', 'ACHN', 'F'),
  ('Cc1cn(C2CC(OP(=O)(O)OCC3OC(n4c[n+]([BH2-]C#N)c5c(=O)[nH]c(N)nc54)CC3O)C(CO)O2)c(=O)[nH]c1=O (stereo not drawn)', 'ACHN', 'F'),
  ('O=C(CCc1cc(-c2ccc(F)cc2)n[nH]1)N(Cc1ccccc1)Cc1ccccc1', 'ACHN', 'F'),
  ('N[C@H](CCC(=O)NCP(=O)(O)O)C(=O)O', 'ACHN', 'F'),
  ('CCOC(=O)c1sc2nc(SC)nc3c2c1NCN3c1ccccc1Cl', 'ACHN', 'F'),
  ('O=C(CC1(O)C(=O)Nc2c(Cl)cc(Cl)cc21)c1ccc2ccccc2c1 (stereo not drawn)', 'ACHN', 'F'),
  ('Cc1cc2nc(O)c(C(C)C(=O)c3ccc(Cl)cc3)nc2cc1C (stereo not drawn)', 'ACHN', 'F');

Taken from ChEMBL document CHEMBL1201862.
